experiment: NCI Yeast Anticancer Drug Screen. Data for the rad50 strain (AID 155);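 also: 0% = growth of vehicle-only cultures of the same strain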
statedConditions: S. cerevisiae rad50 strain growth inhibition; at 50.0 µM; stronger effect = higher value
This is part of a sample that, as a whole, favours compounds with a hit. Of some 79,000 tested, about 15% had one in any assay. Calls of active or inactive are those of the source. Rule as the data show it: active = growth inhibition above about 70%; inactive = the rest.
property: growth inhibition

Per the records, this compound ( CC(C)N(C(=S)/N=C1/SC(C)S(=O)(=O)N1C)C(C)C (configuration not stated) ) has growth inhibition equal to -4.95% (inactive)

Note to self: growth inhibition recorded for COc1ccc([N+](=O)[O-])c(OC)c1 was 4.4% (inactive)

Reported growth inhibition for COC(=O)CCC(=O)O was 8.6% (inactive)

Record COC(=O)/C=C\CC(=O)OC . Reported growth inhibition: 2.75% (inactive)

Reported growth inhibition of COC1(OC)N=C(N)C2(C#N)C(C)=C3NCN(C)N=C3C12C#N (configuration not stated) : 8.15% (inactive)

Query CCC(Cc1ccco1)C(=O)NC(N)=O (configuration not stated) yields growth inhibition of -10.2% (inactive)

Measured growth inhibition, CC1(Cc2ccccc2)NC(=S)NC1=O (configuration not stated) : -1.25% (inactive)

The reported value for CC(=O)OCC(C)Cc1ccccc1 (configuration not stated) in terms of growth inhibition is 6.35% (inactive)

// growth inhibition lookup, compound = CCCCCCCCCCCCCCCCN1C(=O)C2C(C1=O)C1(Cl)C(Cl)=C(Cl)C2(Cl)C1(Cl)Cl (configuration not stated) , result: 7.85% (inactive)

Consider COc1ccc(C2CC(c3c(C)nn(-c4ccccc4)c3-c3ccc(C)cc3O)=NN2c2ccccc2)cc1 (configuration not stated) . Its measured growth inhibition is -3.95% (inactive)

compound N/C(=C\C(=O)c1ccccc1)C(=O)c1ccccc1 , growth inhibition observed: 5.7% (inactive)

Measured growth inhibition, O=C1CC2(CC(=O)N1CCc1c[nH]c3ccccc13)OCCO2 : -1.35% (inactive)

----------
experiment: NCI Yeast Anticancer Drug Screen. Data for the rad50 strain (AID 155);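 also: 0% = growth of vehicle-only cultures of the same strain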
statedConditions: S. cerevisiae rad50 strain growth inhibition; at 50.0 µM
This is part of a sample that, as a whole, favours compounds with a hit. Of some 79,000 tested, about 15% had one in any assay. The source made the active and inactive calls. Rule as the data show it: active = growth inhibition above about 70%; inactive = the rest.
// classify into class 1 for active, class 0 for inactive

Query block: Status in this test for CCN(CC)CC(Oc1ccccc1)C(=O)c1ccccc1 (stereo unspecified) ?
Result block: class 0

Query block: Returns: the outcome recorded for Cc1cccc(C)c1/[N+]([O-])=C/c1cccc([N+](=O)[O-])c1 in this assay.
Result block: class 0

Query block: Per the records of this test, what outcome belongs to O=C1CC2CCC(C1)S2 ?
Result block: class 0

Query block: Recorded call for COc1cc(C2c3cc4c(cc3C(OC(=O)C[n+]3ccccc3)C3COC(=O)C23)OCO4)cc(OC)c1OC (stereo unspecified) ?
Result block: class 0

Query block: Status in this test for O/N=C(\CC(O)(C(F)(F)F)C(F)(F)F)c1cccs1 ?
Result block: class 1

Query block: Name the outcome recorded for CC1(CCOCc2ccccc2)NC(=O)N(CCC#N)C1=O (stereo unspecified) in the assay.
Result block: class 0

----------
experiment: NCI Yeast Anticancer Drug Screen. Data for the cln2 rad14 strain (AID 165);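 also: 0% = growth equal to vehicle treated cultures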
statedConditions: S. cerevisiae cln2 rad14 strain, at 50.0 µM, stronger effect = higher value
Description: Growth inhibition of yeast strains with defined genetic alterations is measured as a screen for potential anti-cancer activity. Selected strains with alterations in DNA damage repair or cell cycle control were exposed to compounds and growth inhibition was measured relative to vehicle treated controls. The strain used in this assay is cln2 rad14
Compounds without any hit were thinned out: in the full panel of roughly 79,000, 15% have a hit.
property: growth inhibition (%)
Number only, in %; omit the unit.

Item: CC12CCC3[C@@H](CC3(C)C)C(O)(CCC1=O)C2 (some centres not stated) | growth inhibition: -23.9

Entry COc1cc(NCCCCCNC(C)C)c2ncccc2c1 ; growth inhibition = 27.9

// field: growth inhibition; key: Fc1c(F)c(F)c(-c2nnc(-c3c(F)c(F)c(F)c(F)c3F)o2)c(F)c1F ; value = -56.8

Just so you know, measured growth inhibition for CCN(CC)CCCNc1ccnc2ccc(Cl)cc12 came out at -17.9

Notebook: O=C(CC(c1ccccc1)C(Br)(c1ccccc1)[N+](=O)[O-])c1ccccc1 (configuration not stated) , growth inhibition read as 22.2

Reported growth inhibition of OC(CCl)(CCl)CCl : -16.5

Noted for Nc1nc(-c2ccccn2)cc(-c2cc(-c3ccccn3)nc(N)n2)n1 : its growth inhibition reads -0.7

Looking up OCC1NCC(O)C(O)C1O (configuration not stated) , I found its growth inhibition recorded as 2.3

The recorded growth inhibition for O=C(NCCCCCCNC(=O)NCc1ccc(Cl)c(Cl)c1)NCc1ccc(Cl)c(Cl)c1 is -3.8

Lab note: measured growth inhibition of CC(=O)CC1(O)C(=O)C(C(C)(C)C)=CC2(C(C)(C)C)OC12 (configuration not stated) was -10.1

For this compound ( O/N=C1/CCCCC1NO (configuration not stated) ), measured growth inhibition is 15.7

The value of growth inhibition measured for the compound N=c1c2c(ncn1N)CCN(Cc1ccccc1)C2 turned out to be -71.8

----------
experiment: NCI Yeast Anticancer Drug Screen. Data for the sgs1 mgt1 strain (AID 161);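 also: 0% = growth of cultures given vehicle only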
statedConditions: S. cerevisiae sgs1 mgt1 strain, at 50.0 µM, stronger effect = higher value
About 79,000 compounds went through this panel and 15% of them were active in at least one assay; those are over-represented in the sample as a whole.
property: growth inhibition (%)
Give the quantity in %, number only.

Entry under test: C=CCOc1ccc(N)c([N+](=O)[O-])c1 . Its growth inhibition was 23.3

Value of measured growth inhibition for the entry O=C1c2cccc([N+](=O)[O-])c2C(=O)N1c1ncn[nH]1 : -21.9

Just so you know, measured growth inhibition for CC(C)NC(=O)C1CC2C=CC1C2 (configuration not stated) came out at 1.75

Notebook: O=C1C=CC(=O)N1Cc1ccco1 , growth inhibition read as 5.9

GET /value?item= S=c1nc[nH]c2nc[nH]c12 &field=growth inhibition returns -6.75

The compound CCCCCCCCCCCCCCCCOc1ccc(C2=NCC(C)S2)c(C)c1 (configuration not stated) showed growth inhibition equal to 12.1

Quick note, growth inhibition for [N-]=[N+]=NC1CC(n2ccc(N)nc2=O)OC1CO (configuration not stated) landed at 0.8

Value of growth inhibition reported for the compound COC(=O)NC(C(F)(F)F)(C(F)(F)F)P1(=O)OCCCO1 is 26.3

The recorded growth inhibition for entry [CH3][Ge]([CH3])([CH3])/[C](=[C](\c1ccccc1)[Ge]([CH3])([CH3])[CH3])c1ccccc1 equals 10

Item: S=c1[nH]nc2nc3c4ccccc4c4ccccc4c3nn12 | growth inhibition: 10.3

CCCCCOC(=S)S.[Ag] has a reported growth inhibition of -1.55

Record [N-]=[N+]=Nc1ccnc2c(C(F)(F)F)cccc12 . Reported growth inhibition: -8

----------
For each of the molecules below, state its growth inhibition.
experiment: NCI Yeast Anticancer Drug Screen. Data for the cln2 rad14 strain (AID 165);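 also: 0% = growth equal to vehicle treated cultures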
statedConditions: S. cerevisiae cln2 rad14 strain, at 50.0 µM, stronger effect = higher value
The panel holds about 79,000 compounds, 15% with a hit somewhere; the sample as a whole holds those more often. Activity calls are given as the source filed them. Rule as the data show it: active = growth inhibition above about 70%; inactive = the rest.

Record COC(CN(C)C(=S)Nc1cccc2ccccc12)OC , field growth inhibition: -11.7% (inactive)

get_value(item= COc1ccc(OC)c2c(C(C)=O)cccc12 , readout=growth inhibition) returns -12.8% (inactive)

Lab book: growth inhibition of CCOC(=O)C1CC1c1ccccc1 (stereo unspecified) noted as -8.65% (inactive)

Value of growth inhibition reported for the molecule O=C1CCCCCCCCCCC1Cc1cc(O)c(CC2CCCCCCCCCCC2=O)cc1O (stereo unspecified) is -12.9% (inactive)

Entry CC(=O)Nc1ccc(/C=C/c2ccc(N=C=S)c(S(=O)(=O)O)c2)c(S(=O)(=O)O)c1 , growth inhibition reported as 10.1% (inactive)

The molecule listed as CCCCCC(C(C)=O)C(C)=O shows growth inhibition equal to 0.45% (inactive)

Short answer for O=[N+]([O-])c1cccc2ccc(N/N=C/c3ccccc3O)nc12 : growth inhibition was 1.85% (inactive)

growth inhibition recorded for this molecule, N#Cc1c(Br)n(C2OC(CO)C(O)C2O)c2ncncc12 (stereo unspecified) , is -0.05% (inactive)

The molecule listed as CCN(CC)C(=O)c1cc2c(cc1[N+](=O)[O-])OCO2 has a reported growth inhibition of -45.8% (inactive)

For reference, reported growth inhibition for O=S(=O)(O)CC(O)CSSCC(O)CS(=O)(=O)O (stereo unspecified) stands at -4.05% (inactive)

For CCOc1ccccc1NC(=O)C(=O)CC(=O)c1sc(Nc2nnc(-c3ccc(Cl)c(Cl)c3)o2)nc1C the molecule record lists growth inhibition as 21.4% (inactive)
